# Protocol notes: soluble on expression in E. coli; label from the status in PepcDB or PDB records

{"Sequence string": "MTNLETYFKNSQPLNEYIDGMKTNQDTVLSIYQSFELPEDDSRIKKIKEMNYSKVLVITEDWCGDAMMNLPILKHISEALNLEVRVFHRDDDTKLIDQYLTNGKSRAIPIFVFLNDQFEQETVWGPRANEVQKFVTDVRADKLPSKDHPDYADLEKETHLVISNRYKTDASFWKAVYNSILNKLENK", "soluble on expression in E. coli": "not soluble"}
{"Sequence string": "MAELISFVVPTQSDKVLLVWDLSTGPPAEALSHSLFTVFSQFGLLYSVRVFPNAAVARPGFYAIIKFYSSRDAQRAQKACDGKPLFQTSPVKVRLGTRHKALQHQAFALNSSRCQELANYYFGFSGWSKRIIKLQELSGLEDAALAVPMQKGSPQFLCAVEVVLPPYGCRSPGVGISEEPLRQLEEGQSSFLMKRKTAQKLAFQAAVSDAFQKLTIVVLESGRIAVEYRPTAEDLDARSEEELQNLIQVSCSSWSQSSQREEECLSDFSLEEEDLKLCDPH", "soluble on expression in E. coli": "soluble"}
{"Sequence string": "MGHHHHHHMPEINTNHLDKQQVQLLAEMCILIDENDNKIGAETKKNCHLNENIEKGLLHRAFSVFLFNTENKLLLQQRSDAKITFPGCFTNTCCSHPLSNPAELEESDALGVRRAAQRRLKAELGIPLEEVPPEEINYLTRIHYKAQSDGIWGEHEIDYILLVRMNVTLNPDPNEIKSYCYVSKEELKELLKKAASGEIKITPWFKIIAATFLFKWWDNLNHLNQFVDHEKIYRM", "soluble on expression in E. coli": "soluble"}
{"Sequence string": "MSLAANTQDVEITIPQGASLYQVSERLYDEGVIRSRLWFRYQGKISQADRNIRPGAYTFSPDTDLEEIFTLLQKGVPEQPVIMTIPEGFTLYEIAQRVESLGFGLAEEFIKATQDYFKSRDYSFDTSELYFEMEGYLYPDTYHLKKNQDMKAIVHSLVSPIDAFFSEEYIKRAEELGLSLHEVLTIASIIEREAYHDEERATVSGVIFNRLGIRMSLQIDATVIYGLGEGKEHRNRVLYADLETPNPFNTYMNTGIPPGPIAAPSKASIHATLYPEDHSYLYYVLGEGGHVFSETYQEHLKHVDAYRRRINEGHHHHHH", "soluble on expression in E. coli": "not soluble"}
{"Sequence string": "MSTDEWRTERDPLVSQDRFLWEKVCCTIIPLHKKRYSSFAKEVVNVSKDAVKINNKKQYITQILPLSQANQQKLTEVKREKKAIAQTHKIHFFDRVVHRKIAKGHYSIEARLDLHGCMQEEAYFFLKKFLQSSQQNGLRYVLVITGKGRSPGSNGVLYQSVPHWLSTPAFRYYVHAFEQAARQHGGDGALYVRLRRFLPGKGYDVV", "soluble on expression in E. coli": "not soluble"}
{"Sequence string": "DKSYRSTKEIMEYANRFLNDTSIIPMVRSGEKVQSLSISSEDEFVDRVTYAIDDMKKEGIETIGVICENMHDTKYFGELLKSKKYINIIEKENQIYTGGETVMPSYFAKGLEFDGVILVSRENKENKDRVLYVMATRALHKLYDFHIEF", "soluble on expression in E. coli": "not soluble"}
{"Sequence string": "MEDELPIIKGKKVILFAPTFRGSGHGTAHYPFFKIDFERLARYCEKNNAVVLFKMHPFVKNRLNIADKHKQYFVDVSDFREVNDILFITDLLISDYSSLIYEYAVFKKPMIFYAFDLEDYITTRDFYEPYESFVPGKIVQSFDALMDALDNEDYEGEKVIPFLDKHFKYQDGRSSERLVRNLFGS", "soluble on expression in E. coli": "soluble"}
